System: P388 leukemia ip, CD2F1 mice, survival T/C
Experiment: NCI In Vivo Anticancer Drug Screen. Data for tumor model P388 Leukemia (intraperitoneal) in CD2F1 (CDF1) mice
Settings: endpoint: median survival time; dose: 60.0 mg/kg/injection; schedule: Q01DX005 (ip); vehicle: saline; higher = longer survival
Inconclusive results and toxic doses are left out.
readout type: T/C

compound: CC12NCCC(CC(=O)N1)C2(C)C (stereo not drawn)
T/C: 103 % of control
--
compound: CCCCC(CC)COCCCNCC(=O)O (stereo not drawn)
T/C: 102 % of control
--
compound: N=C(N)Cl
T/C: 88 % of control
--
compound: CC(=O)NC(C)(C(C)=O)c1ccccc1 (stereo not drawn)
T/C: 102 % of control
--
compound: CCOC(=O)C(NC(C)=O)(C(=O)OCC)C1CCCC1=O (stereo not drawn)
T/C: 94 % of control

Challenge: Query (compound): Cc1cc(C)[n+]([O-])c(C)c1 ; field requested: T/C
Response given: 105 % of control

Challenge: Query (compound): CN(C)C(=O)C1CCC(=O)N1 (stereo not drawn) ; field requested: T/C
Response given: 100 % of control

Challenge: Query (compound): CCc1cc(-c2cc(CC)nc(N)n2)nc(N)n1 ; field requested: T/C
Response given: 97 % of control

Challenge: Query (compound): COc1ccccc1C(=O)C(CN(C)C)CN(C)C ; field requested: T/C
Response given: 112 % of control

Challenge: Query (compound): O=C1OCC/C1=C\N1CCCCC1 ; field requested: T/C
Response given: 102 % of control

Challenge: Query (compound): CCOC(=O)C1=C(C(C)=O)C(c2ccccc2[N+](=O)[O-])C(C(C)=O)=C(C(=O)OCC)N1 ; field requested: T/C
Response given: 104 % of control

Challenge: Query (compound): CCOC(C#CC(=O)C(C)C)OCC ; field requested: T/C
Response given: 101 % of control

Challenge: Query (compound): CN(C)CCNC(=Cc1ccc2ccccc2[n+]1C)NCCN(C)C ; field requested: T/C
Response given: 101 % of control
